Biological target: human F508del-CFTR (Homo sapiens, UniProt P13569, DEL508-508)
Sequence (P13569 with tags, fused parts or gaps DEL508-508): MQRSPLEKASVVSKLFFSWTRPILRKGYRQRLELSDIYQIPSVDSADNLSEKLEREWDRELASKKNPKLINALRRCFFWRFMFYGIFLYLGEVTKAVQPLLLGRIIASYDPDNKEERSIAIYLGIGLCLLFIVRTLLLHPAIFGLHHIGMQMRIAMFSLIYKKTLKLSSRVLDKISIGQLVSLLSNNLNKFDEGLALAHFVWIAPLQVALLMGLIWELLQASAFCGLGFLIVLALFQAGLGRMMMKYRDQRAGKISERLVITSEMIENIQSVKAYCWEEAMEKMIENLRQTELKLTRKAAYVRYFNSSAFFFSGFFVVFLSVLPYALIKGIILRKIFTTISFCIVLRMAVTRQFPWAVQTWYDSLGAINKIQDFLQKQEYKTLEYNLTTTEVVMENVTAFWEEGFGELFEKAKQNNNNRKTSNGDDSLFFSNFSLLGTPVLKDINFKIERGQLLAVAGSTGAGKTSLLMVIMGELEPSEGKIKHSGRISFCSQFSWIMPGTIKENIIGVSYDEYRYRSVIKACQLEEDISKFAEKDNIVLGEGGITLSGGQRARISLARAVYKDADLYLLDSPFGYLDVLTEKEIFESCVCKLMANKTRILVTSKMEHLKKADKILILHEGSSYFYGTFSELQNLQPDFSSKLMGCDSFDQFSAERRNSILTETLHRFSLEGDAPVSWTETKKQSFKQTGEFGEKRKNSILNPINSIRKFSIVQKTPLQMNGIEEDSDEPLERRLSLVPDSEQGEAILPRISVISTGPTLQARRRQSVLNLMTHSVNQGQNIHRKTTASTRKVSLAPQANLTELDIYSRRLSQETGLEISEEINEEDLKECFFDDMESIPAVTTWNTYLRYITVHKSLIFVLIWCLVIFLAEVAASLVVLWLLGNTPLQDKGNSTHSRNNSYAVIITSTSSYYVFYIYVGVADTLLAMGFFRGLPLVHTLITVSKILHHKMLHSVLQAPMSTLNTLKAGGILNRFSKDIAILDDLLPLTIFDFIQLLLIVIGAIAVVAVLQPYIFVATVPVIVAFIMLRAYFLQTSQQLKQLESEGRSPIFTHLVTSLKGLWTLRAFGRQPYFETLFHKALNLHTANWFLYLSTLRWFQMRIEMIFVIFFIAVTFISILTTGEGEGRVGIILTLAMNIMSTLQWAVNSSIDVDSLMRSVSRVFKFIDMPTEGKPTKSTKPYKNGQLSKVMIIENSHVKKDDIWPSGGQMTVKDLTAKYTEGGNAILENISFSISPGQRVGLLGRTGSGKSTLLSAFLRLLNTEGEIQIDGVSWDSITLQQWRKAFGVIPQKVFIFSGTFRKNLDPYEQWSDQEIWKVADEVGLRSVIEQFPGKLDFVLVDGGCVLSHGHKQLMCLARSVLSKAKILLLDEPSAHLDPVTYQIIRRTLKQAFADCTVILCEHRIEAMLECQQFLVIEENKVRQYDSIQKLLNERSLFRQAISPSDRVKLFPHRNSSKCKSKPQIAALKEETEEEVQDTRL
Experiment: F508del-CFTR cell surface expression (corrector activity), DiscoveRx ß-galactosidase complementation chemiluminescence assay in recombinant U2OS cell line
Details: EC50, F508del-CFTR cell surface expression, U2OS cell line, 16h compound incubation; geomean values
Decision: EC50 beneath 0.3 µM gives rule met; EC50 meeting or exceeding 0.3 µM gives rule not met.

Solved cases (4 shown):
CC(C)C[C@H]1C(=O)N(C)C2(CC2)C(=O)N[C@H](Cc2ccccc2)COc2cnc3ccc(F)cc3c2C(=O)N[C@H](C(=O)NCCc2cccc(C#N)c2)CC(=O)N1C [Example 168]: rule not met
COc1cccc2c1C(=O)N[C@H](C(=O)NCCc1ccc3c(c1)OCCCC3)CC(=O)N(C)[C@@H](CC(C)C)C(=O)N1CCOC[C@@H]1C(=O)N[C@H](Cc1ccccc1)CO2 [Example 260]: rule not met
CC(C)C[C@H]1C(=O)N(C)CC(=O)N[C@H](Cc2ccccc2)COc2cccc(F)c2C(=O)N[C@H](C(=O)NCCc2ccc3c(c2)OCO3)CC(=O)N1C [Example 278]: rule not met
COc1cccc(CCNC(=O)[C@@H]2CC(=O)N(C)[C@@H](CC(C)C)C(=O)N(C)C3(CC3)C(=O)N[C@H](Cc3ccccc3)COc3cnc4ccc(F)cc4c3C(=O)N2)c1 [Example 131]: rule met

Query compound follows.
EC50 under 0.3 µM? Item: CC(C)C[C@H]1C(=O)N(CCC(C)(C)C)CC(=O)N[C@H](Cc2ccccc2)COc2cc3c(cc2C(=O)N[C@H](C(=O)NCCc2ccc4c(c2)OCO4)CC(=O)N1C)OCO3 (racemic) [Example 1]
rule met

====

Target: human F508del-CFTR (Homo sapiens, UniProt P13569, DEL508-508)
Experiment: F508del-CFTR cell surface expression (corrector activity), DiscoveRx ß-galactosidase complementation chemiluminescence assay in recombinant U2OS cell line
Settings: EC50, F508del-CFTR cell surface expression, U2OS cells, 16h compound incubation; geomean values
PROPERTY: EC50

Please tell me: EC50 of `COc1cccc(CCNC(=O)[C@@H]2CC(=O)N(C)[C@@H](CC(C)C)C(=O)N3CCN(S(=O)(=O)c4cccnc4)C[C@@H]3C(=O)N[C@H](Cc3ccccc3)COc3ccc4ccccc4c3C(=O)N2)c1` , system human F508del-CFTR (Homo sapiens, UniProt P13569, DEL508-508)?
0.214 µM

====

# maps each entry to its Emax
Molecular target: human F508del-CFTR (Homo sapiens, UniProt P13569, DEL508-508)
Assay: F508del-CFTR cell surface expression (corrector activity), DiscoveRx ß-galactosidase complementation chemiluminescence assay in recombinant U2OS cell line;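 note: U2OS cells co-expressing ProLink-tagged F508del-CFTR and a membrane-anchored enzyme acceptor, where more surface CFTR restores β-galactosidase activity measured by chemiluminescence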
Settings: U2OS, in relation to Emax of corrector lumacaftor (=100%); arithmetic mean values
Lab book: enter the figure in %, no units written.

Would you please look over these solved cases?
CC(C)C[C@H]1C(=O)N2CCCC[C@H]2C(=O)N[C@H](Cc2ccccc2)COc2cnc3ccccc3c2C(=O)N[C@H](C(=O)NCCc2cccc(-n3nccn3)c2)CC(=O)N1C: 130
CC(C)C[C@H]1C(=O)N2CC[C@@H](c3ccccc3)C[C@@H]2C(=O)N[C@H](Cc2ccccc2)COc2cnc3ccccc3c2C(=O)N[C@H](C(=O)NCCc2cc(C3CC3)no2)CC(=O)N1C: 267
CC(C)C[C@H]1C(=O)N2CCCC[C@@H]2C(=O)N[C@H](Cc2ccccc2)COc2cnc3ccc(F)cc3c2C(=O)N[C@H](C(=O)NCCc2ccc(-n3nccn3)cc2)CC(=O)N1C: 225
Cc1cc(CCNC(=O)[C@@H]2CC(=O)N(C)[C@@H](CC(C)C)C(=O)N(C)[C@H](CC(C)C)C(=O)N[C@H](Cc3ccccc3)COc3cnc4ccccc4c3C(=O)N2)on1: 326
COc1cccc(CCNC(=O)[C@@H]2CC(=O)N(C)[C@@H](CC(C)C)C(=O)N(C)CC(=O)N[C@H](Cc3ccccc3)COc3ccc4c(c3C(=O)N2)CCO4)c1: 107
CC(C)C[C@H]1C(=O)N(C)[C@H](CC2CCCC2)C(=O)N[C@H](Cc2ccccc2)COc2cnc3ccc(F)cc3c2C(=O)N[C@H](C(=O)NCCc2noc(C3CC3)n2)CC(=O)N1C: 401

Entry `CC(C)C[C@H]1C(=O)N2CCOC[C@@H]2C(=O)N[C@H](Cc2ccccc2)COc2cnc3ccc(F)cc3c2C(=O)N[C@H](C(=O)NCCc2cc(C3CC3)on2)CC(=O)N1C` , system human F508del-CFTR (Homo sapiens, UniProt P13569, DEL508-508): what Emax was measured?
270

// same read-out, input: `CC(C)C[C@H]1C(=O)N2CCN(c3ccccc3)C[C@H]2C(=O)N[C@H](Cc2ccccc2)COc2cnc3ccc(F)cc3c2C(=O)N[C@H](C(=O)NCCc2cc(C3CC3)no2)CC(=O)N1C`
339
